System: HEK293T viability, CellTiter-Glo ATP luminescence, 48 h
Test: HEK293T cell viability reduction, dose response, cytotoxicity control for LMP1 NF-kB inhibitor project, CellTiter-Glo luminescence, cherry-picks (AID 504861)
The source made the active and inactive calls.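 The calls were made as follows: active = compounds lowering cell viability signal with fitted half-maximal concentration at most ten times their highest tested concentration; inconclusive = flat fit with 30 to 70% signal loss, or poor fit; inactive = the rest.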
Assign a class; possible classes are YES (active), NO (inactive)

Short answer needed: outcome of this test for CC(=NNC(=S)Nc1cccc(Cl)c1)c1ccccn1 ?
YES

Next entry: Cc1oc2c(c1C(=O)c1ccc(Cl)cc1)C(=O)C(=O)c1ccccc1-2
YES

Next entry: Oc1ccccc1/C=N/Nc1nccnc1Cl
NO

Next entry: C=CCn1c(O)c(N=NC(=S)Nc2ccccc2F)c2cc(S(=O)(=O)N3CCOCC3)ccc21
NO

Next entry: CCOC(=O)c1c(C)[nH]c(C(=O)N/N=C\c2ccccc2O)c1C
YES

Next entry: CCCC(=O)NC(c1cccc([N+](=O)[O-])c1)c1ccc2cccnc2c1O (stereo unspecified)
YES

Next entry: COc1ccc(C(=O)NC2CCCc3c2cnn3-c2cccc(C)c2C)c(OC)n1 (stereo unspecified)
YES

Next entry: CC(C)C(=O)NC(c1cccc([N+](=O)[O-])c1)c1ccc2cccnc2c1O (stereo unspecified)
YES

Next entry: CCc1nc(SCC(=O)c2ccc3c(c2)OCCO3)c2ccccc2n1
NO

Next entry: CC(C)C(=O)NC(c1ccc(Cl)cc1Cl)c1ccc2cccnc2c1O (stereo unspecified)
YES

Next entry: Cn1nnnc1N=N/C(=N/Nc1ccccc1)c1ccccc1
YES

Next entry: COc1ccccc1-c1nc(-c2ccccn2)no1
YES

Next entry: COc1cccc(/C=N/NC(=O)c2[nH]nc3c2CCc2ccccc2-3)c1O
YES

Next entry: COc1cccc(/C=N/Nc2nc3ccccc3[nH]2)c1O
YES

Next entry: C(=N\Nc1nc2ccccc2[nH]1)/c1cccc2cccnc12
YES

Next entry: CC(=NNc1nc2ccccc2s1)c1ncccn1
YES

Next entry: O=C(N/N=C/c1ccc[nH]1)c1ccc(COc2cccc3cccnc23)cc1
YES

Next entry: Cc1ccc2nc(-c3ccccn3)[nH]c2c1
YES

Next entry: Nc1ccc(C(=O)N/N=C\c2cc(N=Nc3cccc4ccccc34)ccc2O)cc1
YES

Next entry: Cc1cc(C)nc(SCc2ccc(C(=O)N/N=C/c3cccc(O)c3O)cc2)n1
YES

Next entry: COc1ccccc1NC(=S)NN=C(C)c1ccccn1
YES

Next entry: CSc1ccc2c(c1)C(N1CCN(C)CC1)Cc1ccccc1S2 (stereo unspecified)
YES

Next entry: C=CCNC(=S)N/N=C(\C)c1ccccn1
YES

Next entry: Nc1nc2ccccc2n1C(=O)c1ccccc1
NO

Next entry: c1ccc(CN2CCN(c3ncnc4c3[nH]c3ccccc34)CC2)cc1
YES

Next entry: C=C1C(=O)C2=CC1CCC(=O)C1(C)CCC(OC(C)=O)C(C)(C)C1CC2O (stereo unspecified)
YES

Next entry: COc1ccc2c(c1)/C(=C/c1cnc[nH]1)C(=O)N2
YES

Next entry: S=C(NCCCN1CCOCC1)N1CCN(c2nc(-c3ccc(Cl)cc3)cs2)CC1
NO

Next entry: O=C1c2cccc3c([N+](=O)[O-])ccc(c23)C(=O)N1c1ccccn1
YES

Next entry: CCC(=O)NC(c1cc(Cl)c2cccnc2c1O)C1CC1 (stereo unspecified)
YES

Next entry: O=C(/C=C/c1ccco1)Oc1cc(Br)cc(/C=N/NC(=O)c2ccccc2O)c1
YES

Next entry: c1ccc(CCNc2nc(-c3ccccn3)nc3ccccc23)cc1
YES

Next entry: CCN(CC)c1ccc(/C=N/NC(=O)c2c(Cl)cnn2C)c(O)c1
YES

Next entry: Brc1ccc(-c2nc(-c3ccccn3)no2)o1
NO

Next entry: O=C1c2ccccc2C(Nc2ccc(Cl)cc2)N1CCN1CCOCC1 (stereo unspecified)
NO

Next entry: CCCc1nc2ccc(Br)cc2c(=O)n1-c1ccc([N+](=O)[O-])c(C(F)(F)F)c1
YES

Next entry: CCOc1ccc(C(=O)Nc2cc(C)ccn2)cc1
YES

Next entry: C#CCn1c(S(=O)(=O)Cc2ccc(F)cc2)nc(-c2ccccc2)c1-c1ccccc1
NO

Next entry: CC(=O)NC(c1cccs1)c1cc(F)c2cccnc2c1O (stereo unspecified)
YES

Next entry: CCN(CC)CCC(=O)N1C/C(=C/c2ccccc2)C(=O)/C(=C\c2ccccc2)C1
YES

Next entry: O=C(N/N=C/c1ccc(O)cc1O)c1ccc(CN2C(=O)c3cccc4cccc2c34)cc1
YES

Next entry: COc1cccc(/C=N/Nc2nccnc2Cl)c1O
YES

Next entry: Cc1cccc(-n2ncc(Cl)c(Cl)c2=O)c1
YES

Next entry: Cc1cc(=O)[nH]c(NN=Cc2cc(Br)ccc2O)n1
YES

Next entry: CCCCC(=O)NC(c1ccc(OC)c(OC)c1)c1ccc2cccnc2c1O (stereo unspecified)
YES

Next entry: Oc1ccc(C=NNC(=S)Nc2ccccc2)nc1
YES
